B1: KIAA0774 (parent)
chain: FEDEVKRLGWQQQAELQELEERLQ

# Variants of: B1
# assay-explanation: protein stability index of a GFP-peptide fusion (GPS, HEK-293T) (PSI 1-6); higher = more stable;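 also: lentivirally expressed fusions sorted by FACS into six bins by GFP to DsRed ratio, PSI derived from sequencing read proportions per bin multiplied by bin number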
# measurement-setup: c terminus: a fixed tail appended
Measured protein stability index values are reported for all entries that follow.
Kindly provide the number alone.

mutation-code: Q12E
result-number: 4.09

mutation-code: D3W
result-number: 3.19

mutation-code: Q24V
result-number: 3.12

mutation-code: F1H
result-number: 4.02

mutation-code: L23E
result-number: 4.65

mutation-code: L16D
result-number: 5.11

mutation-code: A14M
result-number: 4.37

mutation-code: R22P
result-number: 5.33

mutation-code: V5P
result-number: 4.01

mutation-code: R7S
result-number: 4.65

Exercise: Query: protein stability index; subject: `Q17A`
Solution: 4.22

Exercise: Could you share which protein stability index value was measured for `W10T` ?
Solution: 5.13

Exercise: Requested read-out: protein stability index. Entry: `E4F`
Solution: 3.38

Exercise: # query: protein stability index of entry `E4I`
Solution: 3.19

Exercise: Which measured protein stability index value corresponds to `E20F` ?
Solution: 2.51
